Values compiled from PubChem BioAssay AID1159580.

Would you kindly list normalized growth for each of these compounds?
# test.name: chemical genetic growth profiling, strain panel (AID 1159580);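 also: tested at 20 µM; growth read once vehicle control cultures reached saturation at 30 °C; 1 = growth at the plate median or of vehicle wells; lower values mean less growth of the strain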
# condition.parameters: S. cerevisiae deletion strains, growth OD, locus YJL154C, strain vps35, active compounds read low
About 2,000 (36%) of roughly 5,500 compounds were called active. About 18% were inconclusive and are not listed. Some of the results follow.
Number only, please.

Record summary for CO[C@H]1/C=C/O[C@@]2(C)Oc3c(C)c(O)c4c(O)c(c5c(nc6cc(C)ccn65)c4c3C2=O)NC(=O)/C(C)=C\C=C\[C@H](C)[C@H](O)[C@@H](C)C(O)[C@@H](C)[C@H](OC(C)=O)[C@@H]1C (stereo not given in full) : reported normalized growth = 1.04

Record summary for O=C1C=CC2=C3c4cc(O)c(O)cc4C[C@@]3(O)COC2=C1 : reported normalized growth = 0.981

Record summary for O=C1C=CC2=C3c4cc(O)c(O)cc4CC3(O)COC2=C1O (stereo not given) : reported normalized growth = 1.03

Record summary for CO[C@H]1/C=C/O[C@@]2(C)Oc3c(C)c(O)c4c(O)c(c(/C=N/N5CCN(C)CC5)c(O)c4c3C2=O)NC(=O)/C(C)=C\C=C\C(C)[C@H](O)[C@@H](C)[C@@H](O)[C@@H](C)[C@@H](OC(C)=O)[C@@H]1C (stereo not given in full) : reported normalized growth = 1.04

Record summary for Cc1occc(=O)c1O : reported normalized growth = 0.953
